Overview of reported growth inhibition across a group of compounds:
test: NCI Yeast Anticancer Drug Screen. Data for the sgs1 strain (AID 173);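 note: 0% = growth of vehicle-only control cultures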; conditions: S. cerevisiae sgs1 mutant, at 3.7 µM, stronger effect = higher value
Compounds without any hit were thinned out: in the full panel of roughly 79,000, 15% have a hit.
Quantity Name: growth inhibition (%)

> print(dat)
                                    compound  value.reported
 1  COc1ccc2c3c1OC(C)C31CC(=O)CCC1CC2 (stereo unspecified)              -6
 2              CC1=C(C)C(=O)C2=C(OCCO2)C1=O              23
 3  COc1cccc(C(NC2=NCCC=N2)c2cc3c(cc2O)OCO3)c1O (stereo unspecified)               6
 4        CC(C)(N=Nc1ccc(Cl)cc1)[N+](=O)[O-]              19
 5  O=C1c2ccccc2N2OC3(N4CCCC4)CCCCC3C12c1ccccc1 (stereo unspecified)               5
 6                      Cc1cc(C)c2[s+]snc2c1               7
 7     CCCCCCCCSC1=C(Cl)C(=O)C(OC)=C(OC)C1=O             -27
 8  CCC(=O)C1=C(O)c2cc(OC)ccc2CC1C(=O)OC (stereo unspecified)              -1
 9   O=C(/C(=C/c1ccc(O)cc1)c1ccccc1)c1ccccc1             -13
10  NC(=S)N1N=C2c3ccccc3CC[C@@H]2[C@@H]1c1ccccc1              13
11  CCCCCCCCN1COCC(COc2ccccc2C)OC1 (stereo unspecified)              -2

###

Overview of reported growth inhibition across a group of compounds:
Test: NCI Yeast Anticancer Drug Screen. Data for the mgt1 strain (AID 153)
Details: S. cerevisiae mgt1 mutant growth inhibition; at 100.0 µM; stronger effect = higher value
Method: Growth inhibition of yeast strains with defined genetic alterations is measured as a screen for potential anti-cancer activity. Selected strains with alterations in DNA damage repair or cell cycle control were exposed to compounds and growth inhibition was measured relative to vehicle treated controls. The strain used in this assay is mgt1
About 79,000 compounds went through this panel and 15% of them were active in at least one assay; those are over-represented in the sample as a whole.
Quantity Name: growth inhibition (%)

> print(dat)
                          smiles.record      quantity.name  value.reported
1               O=C(NO)c1coc2ccccc2c1=O  growth inhibition               9
2  OC(c1ccccc1)(c1ccccc1)c1nccc2ccccc12  growth inhibition              51
3  CC(C)(C)c1ccc2c(c1)C(=O)c1ccccc1C2=O  growth inhibition              -4

###

Overview of reported growth inhibition across a group of compounds:
test: NCI Yeast Anticancer Drug Screen. Data for the cln2 rad14 strain (AID 165);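 note: 0% = growth equal to vehicle treated cultures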; conditions: S. cerevisiae cln2 rad14 strain, at 50.0 µM (retest, dose inferred, filed as 5.0), stronger effect = higher value
About 79,000 compounds went through this panel and 15% of them were active in at least one assay; those are over-represented in the sample as a whole.
Quantity Name: growth inhibition (%)

> print(dat)
                                   compound  value.reported
1  COC(=O)C1CCCCC1C(=O)Nc1ccccc1 (stereo not drawn)               6
2              Cc1cccc2c(Cl)c3cccc(C)c3nc12              10
3  CN1C(=O)C(CC(=O)O)NC1=S (stereo not drawn)              12

###

assay: NCI Yeast Anticancer Drug Screen. Data for the wt2 strain (AID 169);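 note: 0% = growth of vehicle-treated yeast cultures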; settings: S. cerevisiae wt2 strain growth inhibition; at 11.0 µM; stronger effect = higher value
This is part of a sample that, as a whole, favours compounds with a hit. Of some 79,000 tested, about 15% had one in any assay. Active and inactive are the calls of the source. Rule as the data show it: active = growth inhibition above about 70%; inactive = the rest.
Overview of reported growth inhibition across a group of compounds:
Quantity Name: growth inhibition

> print(dat)
                                   compound  value.reported
1   CCN(CC)CCC(=O)Nc1ccc2sc3ccccc3c(=O)c2n1   2% (inactive)
2  O=C(O)c1ccccc1C(=O)OC1CCc2ccccc2C1 (stereo unspecified)  -9% (inactive)
3     CCOP(=O)(OCC)/C(C#N)=C\c1cccc2ccccc12   2% (inactive)
4                Fc1ccc(Nc2ccc3ccccc3c2)cc1  -1% (inactive)
5  CC1C(c2ccccc2)SC(=N)N1C (stereo unspecified)   0% (inactive)
6                Oc1ccc(N=Nc2ccc(Cl)cc2)cc1    93% (active)

###

experiment: NCI Yeast Anticancer Drug Screen. Data for the mlh1 rad18 strain (AID 175); conditions: S. cerevisiae mlh1 rad18 strain growth inhibition; at 5.0 µM (retest, dose inferred, filed as 0.5)
About 79,000 compounds went through this panel and 15% of them were active in at least one assay; those are over-represented in the sample as a whole. The source made the active and inactive calls. Rule as the data show it: active = growth inhibition above about 70%; inactive = the rest.
Labels: YES for active, NO for inactive

> print(dat)
                                    compound  assigned.category
 1  CCCC/C=C1\CCC(CN2CCCC2)C1=O (stereo not given)                 NO
 2  O=S1(=O)CCC2=CC(C(F)(F)F)=CC(C(F)(F)F)=CN21                YES
 3   CN(C)CC(CN(C)C)C(=O)/C=C/c1ccc(Cl)cc1Cl                 NO
 4  NC(CCCCCCCCCCCCC(N)C(=O)c1ccccc1)C(=O)c1ccccc1 (stereo not given)                 NO
 5  N#CCC(=O)N/N=C(\c1ccccc1)C(c1ccccc1)C1(O)C(=O)Nc2c(Cl)ccc(Cl)c21 (stereo not given)                 NO
 6  COc1cccc(C(NC2=NCCC=N2)c2cc3c(cc2O)OCO3)c1O (stereo not given)                 NO
 7           COC(=O)c1ccccc1N=NNc1cccc(SC)c1                 NO
 8                     O=C(Nc1cccs1)c1ccccc1                 NO
 9                           CCCCCCCCCCCNC=O                 NO
10  O=C(Cc1ccccc1)NNc1nc(NNC(=O)c2ccncc2)nc(Nc2ccc(Cl)cc2)n1                 NO
11      CC1=COC2=C(C)C(=O)C(=O)c3c(C)ccc1c32                 NO
12          O=c1c2ccccc2nc(-c2ccc(Cl)cc2)n1O                 NO
13         COc1cc(NCCCCNCC(C)(C)C)c2ncccc2c1                 NO
14                   CCCCCCCCCC(=O)N(CCC)CCC                YES
15        c1c[nH]c(CN2CCN(Cc3ncc[nH]3)CC2)n1                 NO
16            CCN(CC)C(=S)N/N=C(\C)c1ccccc1O                 NO
17                Oc1ccc(N=Nc2ccc(Cl)cc2)cc1                 NO
18         O=C(/N=N/C(=O)Oc1ccccc1)Oc1ccccc1                 NO
19  COc1ccc2c3c1OC(C)C31CC(=O)CCC1CC2 (stereo not given)                 NO
20                Cc1nc2sc3c(c2c(=O)o1)CCCC3                 NO
21                   O=C(NO)c1coc2ccccc2c1=O                 NO
22           CC(C)Cc1ncc(CCCN=C(N)N)[nH]c1=O                 NO
23  NC(=S)N1N=C2c3ccccc3CC[C@H]2[C@@H]1c1ccc(Cl)cc1                 NO
24  NC(N)=NS(=O)(=O)c1ccc(Nc2c3ccccc3nc3c(C(=O)NC(CO)(CO)CO)cccc23)cc1                 NO
25  Oc1c2c(c(O)c3ccccc13)C1(N=N2)c2ccccc2Oc2ccccc21                 NO
26                       CCOC(=S)SSSC(=S)OCC                 NO
27  O=[N+]([O-])c1ccc(S(=O)(=O)Cc2ccccc2)c([N+](=O)[O-])c1                 NO
28  CC1(C)C(O)OC(O)C1(C)C (stereo not given)                 NO
29  CC12CCC(CC(=O)/C1=C(/Br)I)C2(C)C (stereo not given)                 NO
30         O=C1Nc2ccc(Br)cc2C1=Nc1ccc(Cl)cc1                 NO
31  CCC(C)COC(=O)Nc1cccc(Cl)c1 (stereo not given)                 NO
32                CCOc1ccc2nc3ccccc3c(N)c2c1                 NO
33  COC1=CCC23C(=O)C=CC(=O)C2(C1)C(=O)c1ccccc1C3=O (stereo not given)                 NO
34  CC(/C=C/c1ccc([N+](=O)[O-])o1)=N/N1CC(CN2CCOCC2)OC1=O (stereo not given)                 NO
35  O=C(Cc1ccccc1)NNc1nc(NNC(=O)c2ccncc2)nc(Nc2ccc([N+](=O)[O-])cc2)n1                 NO
36  Cc1c(C(=O)/C=C/c2ccccc2[N+](=O)[O-])[n+](=O)c2ccccc2n1[O-]                 NO
37         c1ccc2c(c1)ccn2CCc1c[nH]c2ccccc12                 NO
38  CC(=O)CC(c1ccccc1)c1c(O)c2ccccc2oc1=O (stereo not given)                 NO
39         CC(C)S(=O)(=O)/C=C\S(=O)(=O)C(C)C                 NO
40                N#Cc1nc(Nc2ccc(Cl)cc2)sc1N                 NO
41           CC1(C2CC2)C(C#N)(C#N)C1(C#N)C#N                 NO
42  O=S(=O)(c1ccccc1)N1CN2CN(C1)CN(S(=O)(=O)c1ccccc1)C2                 NO
43   CN(C)CCNc1ccc2ncn3c4ccc(O)cc4c(=O)c1c23                 NO
44                 O=C1C=C(Br)C(=O)c2ccccc21                 NO
45                          Nc1cc2ccccc2cc1N                 NO
